Target: T1, ParB 65-139 (RHH domain) (Leifsonia xyli subsp. cynodontis …, UniProt Q6EEF9 65-139)
T1 sequence: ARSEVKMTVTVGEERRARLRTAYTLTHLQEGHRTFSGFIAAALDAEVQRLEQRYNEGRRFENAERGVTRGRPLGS
Experiment: EMSA
READOUT: Kd (nM)
Give bare numbers, in nM.

[in] Give me measured Kd, please, for this binder: 2R3'-27 (dsDNA) DNA 1: GGAAAAGGTGGAAAAGGTGGAAAAGGT DNA 2: ACCTTTTCCACCTTTTCCACCTTTTCC
[out] 112
